# protocol: The drug is tested on Z-006 corresponding to mouse gut metagenome with ENA study accession number: PRJEB37062 and ENA sample accession number: ERS12561806 for biotransformation under anaerobic condition. The drug concentrations were measured over 9 timepoints collected between 0 and 24 hours of incubation by liquid-chromatography-coupled mass spectrometry (LC–MS); note: call rule not given here
# recordedConditions: 2 µM

>  <compound>
CCOc1ccccc1OCCN[C@H](C)Cc1ccc(OC)c(S(N)(=O)=O)c1.Cl [TAMSULOSIN HYDROCHLORIDE]

>  <Bacterial Biotransformation>
Compound NOT metabolized

$$$$
>  <compound>
C=CC[C@@H]1/C=C(\C)C[C@H](C)C[C@H](OC)[C@H]2O[C@@](O)(C(=O)C(=O)N3CCCC[C@H]3C(=O)O[C@H](/C(C)=C/[C@@H]3CC[C@@H](O)[C@H](OC)C3)[C@H](C)[C@@H](O)CC1=O)[C@H](C)C[C@@H]2OC.O

>  <Bacterial Biotransformation>
Compound NOT metabolized

$$$$
>  <compound>
CC12CC3CC(C)(C1)CC(N)(C3)C2 [MEMANTINE]

>  <Bacterial Biotransformation>
Compound NOT metabolized

$$$$

---

# recordedConditions: human gut metagenome, 24 h, 2 µM
observedProperty: Bacterial Biotransformation

>  <compound>
O=P1(N(CCCl)CCCl)NCCCO1 (stereo not given) [CYCLOPHOSPHAMIDE ANHYDROUS]

>  <observedProperty>
Bacterial Biotransformation

>  <result>
Compound metabolized

$$$$
>  <compound>
CCOC(=O)[C@H](CCc1ccccc1)N[C@@H](C)C(=O)N1CCC[C@H]1C(=O)O.O=C(O)/C=C\C(=O)O [ENALAPRIL MALEATE]

>  <observedProperty>
Bacterial Biotransformation

>  <result>
Compound NOT metabolized

$$$$
>  <compound>
Nc1nc(N)nc(-c2cc(Cl)ccc2Cl)n1.O=C(O)/C=C\C(=O)O [IRSOGLADINE MALEATE]

>  <observedProperty>
Bacterial Biotransformation

>  <result>
Compound NOT metabolized

$$$$
>  <compound>
Cc1cc(C)cc(OCC2CNC(=O)O2)c1 (stereo not given) [METAXALONE]

>  <observedProperty>
Bacterial Biotransformation

>  <result>
Compound metabolized

$$$$
>  <compound>
CC#CCn1c(N2CCC[C@@H](N)C2)nc2c1c(=O)n(Cc1nc(C)c3ccccc3n1)c(=O)n2C [LINAGLIPTIN]

>  <observedProperty>
Bacterial Biotransformation

>  <result>
Compound NOT metabolized

$$$$
>  <compound>
CCCN1C[C@H](CSC)C[C@@H]2c3cccc4[nH]cc(c34)C[C@H]21.CS(=O)(=O)O [PERGOLIDE MESYLATE]

>  <observedProperty>
Bacterial Biotransformation

>  <result>
Compound NOT metabolized

$$$$
>  <compound>
CN(C)CCc1c[nH]c2ccc(CS(=O)(=O)N3CCCC3)cc12 [ALMOTRIPTAN]

>  <observedProperty>
Bacterial Biotransformation

>  <result>
Compound metabolized

$$$$
>  <compound>
CC(C)c1nc(N(C)S(C)(=O)=O)nc(-c2ccc(F)cc2)c1/C=C/[C@@H](O)C[C@@H](O)CC(=O)[O-].CC(C)c1nc(N(C)S(C)(=O)=O)nc(-c2ccc(F)cc2)c1/C=C/[C@@H](O)C[C@@H](O)CC(=O)[O-].[Ca+2] [ROSUVASTATIN CALCIUM]

>  <observedProperty>
Bacterial Biotransformation

>  <result>
Compound metabolized

$$$$
>  <compound>
C#C[C@]1(OC(C)=O)CC[C@H]2[C@@H]3CCC4=C/C(=N/O)CC[C@@H]4[C@H]3CC[C@@]21CC [NORGESTIMATE]

>  <observedProperty>
Bacterial Biotransformation

>  <result>
Compound metabolized

$$$$
>  <compound>
CCCN(CCC)CCc1cccc2c1CC(=O)N2 [ROPINIROLE]

>  <observedProperty>
Bacterial Biotransformation

>  <result>
Compound metabolized

$$$$
>  <compound>
COc1cc(NC(C)CCCN)c2ncccc2c1.O=P(O)(O)O.O=P(O)(O)O (stereo not given) [PRIMAQUINE PHOSPHATE]

>  <observedProperty>
Bacterial Biotransformation

>  <result>
Compound NOT metabolized

$$$$
>  <compound>
CSc1ccc2c(c1)C(N1CCN(C)CC1)Cc1ccccc1S2.O=C(O)/C=C\C(=O)O (stereo not given)

>  <observedProperty>
Bacterial Biotransformation

>  <result>
Compound metabolized

$$$$
>  <compound>
COc1cc2nc(N3CCN(C(=O)C4COc5ccccc5O4)CC3)nc(N)c2cc1OC.CS(=O)(=O)O (stereo not given) [DOXAZOSIN MESYLATE]

>  <observedProperty>
Bacterial Biotransformation

>  <result>
Compound metabolized

$$$$
>  <compound>
CC[C@H](C)C(=O)O[C@H]1CCC=C2C=C[C@H](C)[C@H](CC[C@@H]3C[C@@H](O)CC(=O)O3)[C@H]21 [MEVASTATIN]

>  <observedProperty>
Bacterial Biotransformation

>  <result>
Compound metabolized

$$$$
>  <compound>
Nc1nc(NC2CC2)c2ncn([C@H]3C=C[C@@H](CO)C3)c2n1.Nc1nc(NC2CC2)c2ncn([C@H]3C=C[C@@H](CO)C3)c2n1.O=S(=O)(O)O [ABACAVIR SULFATE]

>  <observedProperty>
Bacterial Biotransformation

>  <result>
Compound metabolized

$$$$
